- TGT: Opioid receptors; mu & delta (Rattus norvegicus) (UniProt P33533+P33535)
- Sequence (P33533 whole entry, looked up): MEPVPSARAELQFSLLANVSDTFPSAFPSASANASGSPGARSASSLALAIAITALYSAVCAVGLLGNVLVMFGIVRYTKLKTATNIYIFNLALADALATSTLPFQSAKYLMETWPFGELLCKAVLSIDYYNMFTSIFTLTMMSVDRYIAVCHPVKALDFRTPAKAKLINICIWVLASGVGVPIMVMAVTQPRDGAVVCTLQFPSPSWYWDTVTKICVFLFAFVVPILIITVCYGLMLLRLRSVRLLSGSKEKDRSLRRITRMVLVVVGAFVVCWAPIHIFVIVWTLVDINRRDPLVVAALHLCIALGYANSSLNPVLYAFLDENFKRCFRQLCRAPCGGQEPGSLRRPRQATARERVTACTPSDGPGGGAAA
- Sequence (P33535 whole entry, looked up): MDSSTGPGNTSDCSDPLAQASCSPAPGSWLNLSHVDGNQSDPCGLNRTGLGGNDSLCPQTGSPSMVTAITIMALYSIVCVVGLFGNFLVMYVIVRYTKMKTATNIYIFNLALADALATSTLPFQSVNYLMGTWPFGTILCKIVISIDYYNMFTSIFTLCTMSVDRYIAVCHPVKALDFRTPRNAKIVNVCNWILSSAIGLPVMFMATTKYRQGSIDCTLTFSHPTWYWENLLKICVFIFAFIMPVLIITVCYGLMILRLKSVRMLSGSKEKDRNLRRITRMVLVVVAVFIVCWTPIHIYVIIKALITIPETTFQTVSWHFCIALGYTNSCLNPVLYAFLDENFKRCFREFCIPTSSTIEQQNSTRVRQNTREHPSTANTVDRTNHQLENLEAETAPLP
- EXPERIMENT SUMMARY: Selectivity for delta opioid receptor over mu opioid receptor in Sprague-Dawley rat brain P2 synaptosomal membrane
Where a SMILES comes first, the peptide text is derived from it. [ ]: non-standard residue; d: D form. The star is where a group is joined. Dmt = Cc1cc(O)cc(C)c1C[C@H](N)C(=O)O; Tic = O=C(O)[C@@H]1Cc2ccccc2CN1; Cbz = O=C(OCc1ccccc1)*; NHBn = c1ccc(CN*)cc1; NHPh = c1ccc(N*)cc1
ASSAY ENDPOINT: Ratio Ki
Just the number, please.

Take a look at these entries with their results.
>>> value_measured("CC(=O)NCCCC[C@H](NC(=O)[C@@H]1Cc2ccccc2CN1C(=O)[C@@H](N)Cc1c(C)cc(O)cc1C)C(=O)NCc1ccccc1 (H-[Dmt]-[Tic]-Lys(Ac)-NHBn)")
81
>>> value_measured("CC(=O)NCCCC[C@H](NC(=O)[C@@H]1Cc2ccccc2CN1C(=O)[C@@H](N)Cc1c(C)cc(O)cc1C)C(=O)Nc1ccccc1 (H-[Dmt]-[Tic]-Lys(Ac)-NHPh)")
5
>>> value_measured("Cc1cc(O)cc(C)c1C[C@H](N)C(=O)N1Cc2ccccc2C[C@H]1C(=O)NCC(=O)O (H-[Dmt]-[Tic]-Gly-OH)")
383
>>> value_measured("Cc1cc(O)cc(C)c1C[C@H](N)C(=O)N1Cc2ccccc2C[C@H]1C(=O)N[C@@H](CCCCN)C(=O)Nc1ccccc1 (H-[Dmt]-[Tic]-Lys-NHPh)")
2
>>> value_measured("Cc1cc(O)cc(C)c1C[C@H](N)C(=O)N1Cc2ccccc2C[C@H]1C(=O)N[C@@H](CCCCN)C(=O)NCc1ccccc1 (H-[Dmt]-[Tic]-Lys-NHBn)")
8
>>> value_measured("Cc1cc(O)cc(C)c1C[C@H](N)C(=O)N1Cc2ccccc2C[C@H]1C(=O)N[C@@H](CCCCNC(=O)OCc1ccccc1)C(=O)NCc1ccccc1 (H-[Dmt]-[Tic]-Lys(Cbz)-NHBn)")
14

Here is the next item to consider.
Exam item: Field request: Ratio Ki | item: Cc1cc(O)cc(C)c1C[C@H](N)C(=O)N1Cc2ccccc2C[C@H]1C(=O)N[C@@H](CCCCNC(=O)OCc1ccccc1)C(=O)Nc1ccccc1 (H-[Dmt]-[Tic]-Lys(Cbz)-NHPh)
Marked response: 3

----------
- TGT: Mu-type opioid receptor (Cavia porcellus, UniProt P97266)
- Sequence (P97266 whole entry): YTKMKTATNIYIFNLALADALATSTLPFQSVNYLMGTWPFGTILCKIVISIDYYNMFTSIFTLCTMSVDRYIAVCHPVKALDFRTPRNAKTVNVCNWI
- EXPERIMENT SUMMARY: Agonist activity at mu opioid receptor assessed as inhibition of electrically-evoked contraction of guinea pig ileum
Where a SMILES comes first, the peptide text is derived from it. [ ]: non-standard residue; d: D form. The star is where a group is joined. Dmt = Cc1cc(O)cc(C)c1C[C@H](N)C(=O)O; Tic = O=C(O)[C@@H]1Cc2ccccc2CN1; Cbz = O=C(OCc1ccccc1)*; NHBn = c1ccc(CN*)cc1; NHPh = c1ccc(N*)cc1
ASSAY ENDPOINT: IC50

Before answering, review these 5 worked examples.
>>> value_measured("CC(=O)NCCCC[C@H](NC(=O)[C@@H]1Cc2ccccc2CN1C(=O)[C@@H](N)Cc1c(C)cc(O)cc1C)c1nc2ccccc2[nH]1")
"53.9 nM"
>>> value_measured("Cc1cc(O)cc(C)c1C[C@H](N)C(=O)N1Cc2ccccc2C[C@H]1C(=O)N[C@@H](CCCCNC(=O)OCc1ccccc1)c1nc2ccccc2[nH]1")
"375 nM"
>>> value_measured("CC(=O)NCCCC[C@H](NC(=O)[C@@H]1Cc2ccccc2CN1C(=O)[C@@H](N)Cc1c(C)cc(O)cc1C)C(=O)NCc1ccccc1 (H-[Dmt]-[Tic]-Lys(Ac)-NHBn)")
"> 10000 nM"
>>> value_measured("Cc1cc(O)cc(C)c1C[C@H](N)C(=O)N1Cc2ccccc2C[C@H]1C(=O)N[C@@H](CCCCNC(=O)OCc1ccccc1)C(=O)NCc1ccccc1 (H-[Dmt]-[Tic]-Lys(Cbz)-NHBn)")
"> 10000 nM"
>>> value_measured("Cc1cc(O)cc(C)c1C[C@H](N)C(=O)N1Cc2ccccc2C[C@H]1C(=O)N[C@@H](CCCCN)C(=O)NCc1ccccc1 (H-[Dmt]-[Tic]-Lys-NHBn)")
"> 10000 nM"

Now look at this one.
Exam item: I am curious: what IC50 value has been reported for CC(=O)NCCCC[C@H](NC(=O)[C@@H]1Cc2ccccc2CN1C(=O)[C@@H](N)Cc1c(C)cc(O)cc1C)C(=O)Nc1ccccc1 (H-[Dmt]-[Tic]-Lys(Ac)-NHPh) ?
Marked response: 1250 nM
